# RUN_DESCRIPTION: recombinant barcode read abundance after kanamycin selection (control-corrected) (log10(CPM+1)); higher = more efficient recombination; sequences stand for … in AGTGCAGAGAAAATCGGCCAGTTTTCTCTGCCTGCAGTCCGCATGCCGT…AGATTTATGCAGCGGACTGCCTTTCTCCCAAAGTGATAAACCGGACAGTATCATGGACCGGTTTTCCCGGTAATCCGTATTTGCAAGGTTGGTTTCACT; site = the 11-nt target;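 note: IS621 recombinase and bridge RNA in Escherichia coli cells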
OBSERVED_PROPERTY: recombinant barcode read abundance (log10)
Enter a number only.

{"columns": ["SEQUENCE_STRING", "MEAS_VALUE"],
 "data": [
  ["ACGGGGCCTTGGGTTCTAACCTGTTGCCG (site GTATATACTAA)", 0.116],
  ["CGATTTCCTTGGGTTCTAACCTGTTGCCT (site CGATTTCCTAT)", 0.102],
  ["TAGTTGCCTTGGGTTCTAACCTGTTGCCT (site TATTTGCCTAG)", 0.0554]
]}

Enquiry: Hello, please tell me recorded recombinant barcode read abundance (log10) for this one: CATGACCCTTGGGTTCTAACCTGTTGCCT (site CAAGACCCTAG)
Return: 0.993

Enquiry: Hello, please tell me recorded recombinant barcode read abundance (log10) for this one: GAGGGTCCTTGGGTTCTAACCTGTTGCCT (site GAGGGTCCTAA)
Return: 0.451
